// data source = patent US20250250357A1

EXPERIMENTAL_SYSTEM: T1, human MSLN-R1-his protein (human, UniProt Q13421 296-390)
T1 construct: Region 1 of human MSLN, His-tagged; also called human MSLN-R1 protein; hMSLN-R1-his; not shown: His tag
T1 chain: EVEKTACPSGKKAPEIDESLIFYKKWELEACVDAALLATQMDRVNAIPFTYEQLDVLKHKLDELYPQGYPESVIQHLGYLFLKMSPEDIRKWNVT
PROTOCOL_TEXT: ELISA, coated MSLN-R1;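 note: serially diluted chimeric antibodies bound to the coated, BSA-blocked plate for 2 h at 37 °C, with TMB colour read after acid stop and a negative control antibody alongside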
Field: OD450 at 10 nM. Provide a value for each of the binders that follow.
The answer is to be given in OD450; state only the numeric part.

Prompt line: What measured OD450 at 10 nM goes with S009-F2.39.3 (antibody, human IgG1, kappa, V domains shown, Human-murine chimeric antibody, human IgG1/kappa constant regions) VH: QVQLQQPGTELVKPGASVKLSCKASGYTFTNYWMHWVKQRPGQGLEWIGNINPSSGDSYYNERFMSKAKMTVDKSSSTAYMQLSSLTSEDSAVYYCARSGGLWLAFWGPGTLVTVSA VL: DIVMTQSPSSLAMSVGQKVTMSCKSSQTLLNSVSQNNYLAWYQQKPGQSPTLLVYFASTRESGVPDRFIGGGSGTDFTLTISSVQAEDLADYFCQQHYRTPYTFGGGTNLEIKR ?
Response line: 0.06

Prompt line: Would you kindly repeat that for S009-F2.47.1 (antibody, human IgG1, kappa, V domains shown, Human-murine chimeric antibody, human IgG1/kappa constant regions) VH: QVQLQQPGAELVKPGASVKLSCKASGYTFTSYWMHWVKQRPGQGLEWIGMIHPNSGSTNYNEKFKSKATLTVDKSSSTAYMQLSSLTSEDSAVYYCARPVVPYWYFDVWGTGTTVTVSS VL: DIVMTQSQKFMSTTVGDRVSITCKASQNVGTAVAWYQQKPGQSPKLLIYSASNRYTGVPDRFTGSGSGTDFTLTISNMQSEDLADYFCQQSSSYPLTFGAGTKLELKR ?
Response line: 0.23
